All values here come from patent US11981658B2.

- Assayed System: EGFR Del19/T790M/C797S (Homo sapiens, UniProt P00533, C797S/DEL746-750/T790M)
- Sequence (P00533 with tags, fused parts or gaps DEL746-750/T790M/C797S): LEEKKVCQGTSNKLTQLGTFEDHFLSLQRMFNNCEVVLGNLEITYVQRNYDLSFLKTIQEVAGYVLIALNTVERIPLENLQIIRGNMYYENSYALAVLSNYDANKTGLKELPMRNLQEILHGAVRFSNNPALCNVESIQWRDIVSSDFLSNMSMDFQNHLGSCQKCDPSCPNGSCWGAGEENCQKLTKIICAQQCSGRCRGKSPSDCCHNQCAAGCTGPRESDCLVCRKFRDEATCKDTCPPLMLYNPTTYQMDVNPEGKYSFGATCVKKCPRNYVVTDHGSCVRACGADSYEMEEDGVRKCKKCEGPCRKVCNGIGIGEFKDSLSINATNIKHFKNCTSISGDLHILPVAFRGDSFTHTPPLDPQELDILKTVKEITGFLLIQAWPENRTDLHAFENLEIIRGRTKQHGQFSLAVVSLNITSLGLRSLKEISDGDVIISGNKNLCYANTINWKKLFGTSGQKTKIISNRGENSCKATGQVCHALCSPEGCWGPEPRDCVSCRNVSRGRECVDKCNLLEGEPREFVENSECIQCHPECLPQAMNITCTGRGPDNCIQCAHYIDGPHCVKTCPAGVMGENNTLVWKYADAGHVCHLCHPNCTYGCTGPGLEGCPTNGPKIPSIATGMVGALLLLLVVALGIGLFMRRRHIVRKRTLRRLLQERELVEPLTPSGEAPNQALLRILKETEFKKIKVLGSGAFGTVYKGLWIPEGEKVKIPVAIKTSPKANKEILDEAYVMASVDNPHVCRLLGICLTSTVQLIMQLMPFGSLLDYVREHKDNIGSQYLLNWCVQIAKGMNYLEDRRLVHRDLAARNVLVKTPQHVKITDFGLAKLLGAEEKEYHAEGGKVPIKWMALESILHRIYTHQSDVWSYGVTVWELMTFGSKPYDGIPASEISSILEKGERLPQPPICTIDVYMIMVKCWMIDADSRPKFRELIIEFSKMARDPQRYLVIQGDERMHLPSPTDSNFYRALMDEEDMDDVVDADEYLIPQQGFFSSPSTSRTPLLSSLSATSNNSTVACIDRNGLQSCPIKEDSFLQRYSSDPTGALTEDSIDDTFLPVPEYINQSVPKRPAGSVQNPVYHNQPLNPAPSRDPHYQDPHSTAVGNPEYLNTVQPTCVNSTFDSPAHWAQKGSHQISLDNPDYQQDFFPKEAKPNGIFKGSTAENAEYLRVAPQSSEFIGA
- Protocol Description: Biochemical EGFR kinase inhibition assay (Lance Ultra TR-FRET), triple mutant del19/T790M/C797S
- Conditions Used: Km ATP; read-out: IC50 Del19/T790M/C797S (nM) Km ATP
- Description: Biochemical EGFR kinase assays were conducted using Lance Ultra time-resolved fluorescence resonance energy transfer (TR-FRET) technology from Perkin-Elmer. […] Each kinase reactions were incubated at room temperature for 1 hour and then stopped by the addition of 4 μL of stop solution (10 mM EDTA). […] After 60 minutes incubation at room temperature the LANCE signal was measured on an EnVision Multilabel Reader (Perkin-Elmer). […]
Readout Type: IC50
Please provide the amount together with its unit, number first.

These recorded examples may help you get a feel for the data.
Compound	Assayed System	IC50
Cn1cc(C#Cc2cnc(Nc3ccnc(-c4cnn(S(=O)(=O)C5CC5)c4)n3)cc2N[C@H]2CC[C@@H](NCCF)CC2)cn1 [Example 80]	EGFR Del19/T790M/C797S (Homo sapiens, UniProt P00533, C797S/DEL746-750/T790M)	0.5 nM
Cn1cc(C#Cc2cnc(Nc3ccnc(-c4cnn(S(=O)(=O)C5CC5)c4)n3)cc2N2CCC3(CCNC3=O)CC2)cn1 [Example 79]	EGFR Del19/T790M/C797S (Homo sapiens, UniProt P00533, C797S/DEL746-750/T790M)	0.2 nM
CN(C)Cc1ccc(CNc2cc(Nc3ccnc(-c4cnn(S(=O)(=O)C5CC5)c4)n3)ncc2C#Cc2cnn(CC(F)F)c2)cc1 [Example 52]	EGFR Del19/T790M/C797S (Homo sapiens, UniProt P00533, C797S/DEL746-750/T790M)	1.4 nM

Kindly review the next compound as well.
Data request: Endpoint output: IC50 of CN(C)CCNC1CCN(c2cc(Nc3ccnc(-c4cnn(S(=O)(=O)C5CC5)c4)n3)ncc2C#Cc2cnn(C(F)(F)F)c2)CC1 [Example 143] . Value?
Data returned: 0.5 nM
